Molecular target: UniProtKB Q9H2X9
Sequence (Q9H2X9 whole entry): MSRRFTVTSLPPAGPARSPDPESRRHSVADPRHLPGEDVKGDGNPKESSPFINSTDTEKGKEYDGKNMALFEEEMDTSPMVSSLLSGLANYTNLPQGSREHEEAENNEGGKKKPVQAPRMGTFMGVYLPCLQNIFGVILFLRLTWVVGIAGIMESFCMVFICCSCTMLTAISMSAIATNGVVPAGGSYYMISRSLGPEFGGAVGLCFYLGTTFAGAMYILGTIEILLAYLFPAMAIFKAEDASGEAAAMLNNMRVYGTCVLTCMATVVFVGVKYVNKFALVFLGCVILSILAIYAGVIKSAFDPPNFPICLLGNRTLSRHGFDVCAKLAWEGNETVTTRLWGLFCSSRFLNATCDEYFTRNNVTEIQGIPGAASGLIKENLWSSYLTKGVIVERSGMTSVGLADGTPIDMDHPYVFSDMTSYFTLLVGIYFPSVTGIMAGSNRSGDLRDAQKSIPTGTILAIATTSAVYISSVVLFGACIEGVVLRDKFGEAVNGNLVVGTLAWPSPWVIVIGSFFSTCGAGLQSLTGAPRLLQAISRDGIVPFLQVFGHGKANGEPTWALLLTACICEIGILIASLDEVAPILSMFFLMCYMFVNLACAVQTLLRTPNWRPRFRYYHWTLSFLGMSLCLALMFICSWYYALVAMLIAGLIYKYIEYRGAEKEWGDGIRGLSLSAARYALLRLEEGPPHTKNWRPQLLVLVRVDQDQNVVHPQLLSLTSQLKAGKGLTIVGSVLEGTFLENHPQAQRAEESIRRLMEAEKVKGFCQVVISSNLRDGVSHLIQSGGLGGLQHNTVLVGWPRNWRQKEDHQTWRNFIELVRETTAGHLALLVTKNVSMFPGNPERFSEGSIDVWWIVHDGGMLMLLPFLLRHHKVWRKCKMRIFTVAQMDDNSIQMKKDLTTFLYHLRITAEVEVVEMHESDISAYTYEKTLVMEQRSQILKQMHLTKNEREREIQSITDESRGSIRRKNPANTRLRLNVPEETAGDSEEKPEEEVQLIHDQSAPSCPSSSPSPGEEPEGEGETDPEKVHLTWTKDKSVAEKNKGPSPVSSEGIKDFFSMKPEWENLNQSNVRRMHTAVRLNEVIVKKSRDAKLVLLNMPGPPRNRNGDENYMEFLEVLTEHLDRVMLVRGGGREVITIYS
Experiment: KCC2 cotransport modulators, dose response, cell-based, assay 2 (AID 1723)
compounds and their reported pEC50
// pEC50 is dimensionless: -log10 of concentration (M)

Compound	Assay Target	pEC50
CC(=O)c1cccc(NC(=S)NC(=O)c2ccc(C)cc2)c1 [MLS000687464]	UniProtKB Q9H2X9	5.73
O=C(NC(=S)Nc1nc(-c2cccc([N+](=O)[O-])c2)cs1)c1ccccc1Cl	UniProtKB Q9H2X9	3.61
Fc1cccc(F)c1C=NNC(=S)Nc1cccnc1	UniProtKB Q9H2X9	4.85
COC(=O)c1sccc1NC(=S)OC	UniProtKB Q9H2X9	5.76
S=C(NCCc1ccccc1)NN=Cc1cccc(Cl)c1Cl	UniProtKB Q9H2X9	4.95

Prompt line: Quick check: pEC50 on UniProtKB Q9H2X9, item CCOc1ccc2nc(Sc3cc(O)n(-c4cccc(OC)c4)c3O)sc2c1 ?
Response line: 4.85

Prompt line: Quick check: pEC50 on UniProtKB Q9H2X9, item CCOc1[nH]n(-c2ccccc2)c(=O)c1C=Nc1ccc(F)cc1F ?
Response line: 5.23
